Test system: HepG2 or HepG2.117 cells
test: Cytotoxicity, ATPlite Luminescence Assay
Format: cell-based, human
experimental_setup: 3-days incubation unless marked with *
property_label: CC50

Would you please look over these solved cases?
Consider CC(c1cc(F)ccn1)N1C[C@@H](C)n2nc3c(c2C1=O)CN(C(=O)c1ccc(Cl)c(Cl)c1)[C@H](C)C3 (single isomer, unassigned) [Compound 32B] . Its measured CC50 is > 50 µM

Consider CC(C)Oc1cc(C(C)N2C[C@@H](C)n3nc4c(c3C2=O)CN(C(=O)c2ccc(Cl)c(C(F)(F)F)c2)[C@H](C)C4)ccn1 (single isomer, unassigned) [Compound 48B] . Its measured CC50 is 11.5 µM

From here, focus on the item given below.
Consider CC(c1ccc(NS(C)(=O)=O)cn1)N1C[C@@H](C)n2nc3c(c2C1=O)CN(C(=O)c1ccc(Cl)c(C(F)(F)F)c1)[C@H](C)C3 (single isomer, unassigned) [Compound 33B] . Its measured CC50 is > 50 µM
